- target_entity: Prolyl endopeptidase (Homo sapiens)
- Sequence (P48147 whole entry): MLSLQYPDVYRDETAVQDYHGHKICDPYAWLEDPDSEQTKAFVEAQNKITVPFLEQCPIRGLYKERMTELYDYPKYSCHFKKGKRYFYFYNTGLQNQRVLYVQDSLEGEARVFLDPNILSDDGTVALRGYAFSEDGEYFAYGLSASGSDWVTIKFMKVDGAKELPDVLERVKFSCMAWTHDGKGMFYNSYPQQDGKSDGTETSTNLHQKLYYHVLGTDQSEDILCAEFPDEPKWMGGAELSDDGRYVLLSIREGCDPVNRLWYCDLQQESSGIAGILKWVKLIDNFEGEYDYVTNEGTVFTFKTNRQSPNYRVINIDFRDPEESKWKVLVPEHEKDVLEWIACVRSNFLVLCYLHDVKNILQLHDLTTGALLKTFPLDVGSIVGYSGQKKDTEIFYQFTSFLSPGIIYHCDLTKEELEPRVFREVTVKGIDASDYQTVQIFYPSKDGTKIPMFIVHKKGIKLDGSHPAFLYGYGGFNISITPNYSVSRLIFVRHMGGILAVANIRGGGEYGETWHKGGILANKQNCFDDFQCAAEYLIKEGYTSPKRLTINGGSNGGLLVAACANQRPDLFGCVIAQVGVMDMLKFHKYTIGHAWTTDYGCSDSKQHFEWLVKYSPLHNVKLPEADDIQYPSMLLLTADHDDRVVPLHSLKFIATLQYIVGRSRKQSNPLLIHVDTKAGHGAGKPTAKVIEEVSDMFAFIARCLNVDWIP
- measurement_notes: Inhibition of human recombinant PREP expressed in Escherichia coli BL21(DE3) using N-succinyl-Gly-Pro-AMC as substrate incubated for 15 mins by fluorescence based analysis
pIC50: −log10 of the molar value.
As shown below, each of these compounds has a reported pIC50 value.

structure_notation: CC(C)(C)NC(=O)NC12CC3CC(CC(NCC(=O)N4Cc5ccc(F)cc5C4)(C3)C1)C2
result: < 5.00
--
structure_notation: O=C(NC12CC3CC(CC(NCC(=O)N4Cc5ccccc5C4)(C3)C1)C2)OCC(Cl)(Cl)Cl
result: < 5.00
--
structure_notation: CCCCNC(=O)OC12CC3CC(CC(NCC(=O)N4Cc5ccccc5C4)(C3)C1)C2
result: < 5.00
--
structure_notation: O=C(NC12CC3CC(C1)CC(OCc1ccc(F)cc1F)(C3)C2)OC12CC3CC(CC(NCC(=O)N4Cc5ccccc5C4)(C3)C1)C2
result: < 5.00
--
structure_notation: O=C(NC(c1ccc(F)cc1)c1ccc(F)cc1)OC12CC3CC(CC(NCC(=O)N4Cc5ccccc5C4)(C3)C1)C2
result: < 5.00

**Query** // query pIC50 value for entry `O=C(NCc1ccccc1)OC12CC3CC(CC(NCC(=O)N4Cc5ccccc5C4)(C3)C1)C2`
**Result** < 5.00

**Query** // query pIC50 value for entry `O=C(NCc1ccccn1)OC12CC3CC(CC(NCC(=O)N4Cc5ccccc5C4)(C3)C1)C2`
**Result** < 5.00

**Query** // query pIC50 value for entry `O=C(NCc1ccncc1)OC12CC3CC(CC(NCC(=O)N4Cc5ccccc5C4)(C3)C1)C2`
**Result** < 5.00

**Query** // query pIC50 value for entry `CC(C)(C)OC(=O)N[C@@H](Cc1ccccc1)C(=O)NC12CC3CC(CC(NCC(=O)N4Cc5ccccc5C4)(C3)C1)C2`
**Result** < 5.00

**Query** // query pIC50 value for entry `O=C(NC12CC3CC(CC(O)(C3)C1)C2)OC12CC3CC(CC(NCC(=O)N4Cc5ccccc5C4)(C3)C1)C2`
**Result** < 5.00

Value source: ChEMBL document CHEMBL5365493
